target: Cell division control protein 42 homolog (Homo sapiens) (UniProt P60953); test: constitutively active Cdc42 guanine nucleotide binding blockers – biochemical, activated mutant, bead multiplex, flow cytometry, round 2, selectivity assay for Rab7 inhibitor project, SAR follow-up (AID 588624); details: GST-Cdc42 act beads, Bodipy-GTP binding
Sequence (P60953 whole entry, looked up): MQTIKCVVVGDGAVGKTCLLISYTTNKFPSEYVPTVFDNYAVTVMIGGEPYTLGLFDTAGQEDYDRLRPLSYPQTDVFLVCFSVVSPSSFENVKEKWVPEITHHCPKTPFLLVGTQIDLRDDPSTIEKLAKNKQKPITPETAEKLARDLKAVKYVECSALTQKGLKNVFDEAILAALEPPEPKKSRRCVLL
A collection of compounds and their measured EC50

>  <Smiles entry>
CC1(C)Cc2c(sc(NC(=S)NC(=O)c3cccc(Br)c3)c2C(=O)O)CO1

>  <EC50>
40600 nM

$$$$
>  <Smiles entry>
Cc1ccccc1C(=O)NC(=S)Nc1sc2c(c1C(=O)O)CC(C)(C)OC2

>  <EC50>
1350 nM

$$$$
>  <Smiles entry>
CC1(C)Cc2c(sc(NC(=S)NC(=O)C3CCCCC3)c2C(=O)O)CO1

>  <EC50>
3130 nM

$$$$

Shifting focus to the compound that follows.
Lab note: measured EC50 of `COc1cccc(C(=O)NC(=S)Nc2sc3c(c2C(=O)O)CC(C)(C)OC3)c1` was 1310 nM

---

molecular target: Cell division control protein 42 homolog (Homo sapiens); assay: constitutively active Cdc42 guanine nucleotide binding blockers – biochemical, activated mutant, bead multiplex, flow cytometry, round 2, selectivity assay for Rab7 inhibitor project, SAR follow-up (AID 588624); conditions: GST-Cdc42 act beads, Bodipy-GTP binding
Measurement kind: pEC50
Quick note: pEC50 means taking -log10 of the concentration in moles per liter.

Below: 5 compounds and their reported pEC50.
>  <Compound>
CC1(C)Cc2c(sc(NC(=S)NC(=O)c3ccccc3Br)c2C(=O)O)CO1

>  <Measurement kind>
pEC50

>  <Result number>
4.53

$$$$
>  <Compound>
CC1(C)Cc2c(sc(NC(=S)NC(=O)c3cccc(F)c3)c2C(=O)O)CO1

>  <Measurement kind>
pEC50

>  <Result number>
5.23

$$$$
>  <Compound>
CC1(C)Cc2c(sc(NC(=S)NC(=O)c3ccc(F)cc3)c2C(=O)O)CO1

>  <Measurement kind>
pEC50

>  <Result number>
6.16

$$$$
>  <Compound>
CC1Cc2c(sc(NC(=S)NC(=O)c3ccccc3)c2C(=O)O)CO1 (centres undefined)

>  <Measurement kind>
pEC50

>  <Result number>
5.10

$$$$
>  <Compound>
CC1(C)Cc2c(sc(NC(=S)NC(=O)c3ccccc3F)c2C(=O)O)CO1

>  <Measurement kind>
pEC50

>  <Result number>
5.68

$$$$

Lab note: measured pEC50 of CC(C)(C)C1Cc2c(sc(NC(=S)NC(=O)c3ccccc3)c2C(=O)O)CO1 (centres undefined) was 6.03

Lab note: measured pEC50 of `CC1(C)Cc2c(sc(NC(=S)NC(=O)c3ccco3)c2C(=O)O)CO1` was 6.49

Lab note: measured pEC50 of `O=C(NC(=S)Nc1sc2c(c1C(=O)O)CCOC2)c1ccccc1` was 4.90

Lab note: measured pEC50 of CCC1(C)Cc2c(sc(NC(=S)NC(=O)c3ccccc3)c2C(=O)O)CO1 (centres undefined) was 6.75
